Origin of values: patent US20230364070A1

# assayed_target: Ba/F3 cells with EGFR WT (Homo sapiens, UniProt P00533)
# Sequence (P00533 25-1210): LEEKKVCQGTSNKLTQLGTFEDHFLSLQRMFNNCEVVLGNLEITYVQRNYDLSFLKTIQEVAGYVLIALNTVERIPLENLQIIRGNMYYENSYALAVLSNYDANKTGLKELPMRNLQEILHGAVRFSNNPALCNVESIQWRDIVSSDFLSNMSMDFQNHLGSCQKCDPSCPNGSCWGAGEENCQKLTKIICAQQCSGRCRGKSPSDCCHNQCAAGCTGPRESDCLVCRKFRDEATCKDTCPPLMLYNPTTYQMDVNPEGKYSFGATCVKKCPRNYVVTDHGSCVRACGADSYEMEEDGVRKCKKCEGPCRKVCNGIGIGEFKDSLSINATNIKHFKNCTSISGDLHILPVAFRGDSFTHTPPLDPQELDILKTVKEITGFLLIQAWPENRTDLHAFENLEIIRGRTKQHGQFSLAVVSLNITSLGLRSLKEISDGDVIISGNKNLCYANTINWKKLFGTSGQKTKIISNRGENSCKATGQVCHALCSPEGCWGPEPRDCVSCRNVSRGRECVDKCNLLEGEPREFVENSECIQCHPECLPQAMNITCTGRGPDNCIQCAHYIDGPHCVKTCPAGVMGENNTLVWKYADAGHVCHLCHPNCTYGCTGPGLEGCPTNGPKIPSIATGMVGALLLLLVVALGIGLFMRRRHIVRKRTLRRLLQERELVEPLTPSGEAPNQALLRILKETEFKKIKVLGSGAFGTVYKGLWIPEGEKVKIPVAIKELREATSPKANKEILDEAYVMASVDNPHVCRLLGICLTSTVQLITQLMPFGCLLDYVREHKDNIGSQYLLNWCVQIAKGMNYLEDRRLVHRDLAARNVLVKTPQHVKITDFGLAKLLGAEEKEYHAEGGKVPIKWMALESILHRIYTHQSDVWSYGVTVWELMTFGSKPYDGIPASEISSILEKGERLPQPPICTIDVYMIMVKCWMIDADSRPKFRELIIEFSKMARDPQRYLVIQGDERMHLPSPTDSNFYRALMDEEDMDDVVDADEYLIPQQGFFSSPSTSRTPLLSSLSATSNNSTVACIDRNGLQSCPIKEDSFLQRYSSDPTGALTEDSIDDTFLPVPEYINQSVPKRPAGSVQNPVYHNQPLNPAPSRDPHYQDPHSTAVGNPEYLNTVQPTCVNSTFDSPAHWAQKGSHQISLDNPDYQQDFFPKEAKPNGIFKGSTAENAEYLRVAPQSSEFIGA
# protocol_details: EGFR activity: Ba/F3 cell viability (CellTiter-Glo, 72 h), EGFR WT
# run_conditions: read-out: BaF3 WT IC50
pIC50: −log10 of the molar value.
Exercise: for every item that follows, state its recorded pIC50.

stdin: Entry under review: COc1c(F)cccc1Nc1c(-c2ccncc2OCc2ccccn2)[nH]c2c1C(=O)NCC2 [Compound 472] . Reported pIC50?
stdout: > 7.00

stdin: Give its pIC50 value. Item: C=CC(=O)N1CCOC[C@@]1(C)C#Cc1cnccc1-c1[nH]c2c(c1Nc1cccc(Cl)c1OC)C(=O)NCC2 [compound 634]
stdout: 6.00 to 7.00

stdin: Which pIC50 reading was recorded for the molecule COc1c(F)cccc1Nc1c(-c2ccncc2C#CC2(NC(=O)/C=C/CN(C)C)COC2)[nH]c2c1C(=O)NCC2 [compound 417] ?
stdout: < 6.00

stdin: Quick one: pIC50 for COc1c(F)cccc1Nc1c(-c2ccncc2OCC2CCn3ccnc32)[nH]c2c1C(=O)NCC2 (stereo not shown) [Compound 124] ?
stdout: < 6.00

stdin: Any idea what pIC50 was measured for C=CC(=O)N1[C@@H](COc2cnccc2-c2[nH]c3c(c2Nc2cccc(Cl)c2OC)C(=O)NCC3)C[C@H]1C [compound 271] ?
stdout: > 7.00

stdin: Which value of pIC50 has been reported for C=CC(=O)NC1(C#Cc2cnccc2-c2[nH]c3c(c2Nc2cccc(F)c2OC)C(=O)NCC3)CN(C)C1 [compound 336] in the records?
stdout: < 6.00

stdin: Which value of pIC50 has been reported for C=CC(=O)N1CCC[C@H]1COc1cnccc1-c1[nH]c2c(c1Nc1cccc(Cl)c1CC)C(=O)NCC2 [compound 216] in the records?
stdout: 6.00 to 7.00

stdin: What value of measured pIC50 is listed for COc1c(F)cccc1Nc1c(-c2ccncc2OCc2csc3nccn23)[nH]c2c1C(=O)NCC2 [Compound 130] ?
stdout: < 6.00

stdin: I have this molecule here, COc1c(Cl)cccc1Nc1c(-c2ccncc2C#CC2(OC)COC2)[nH]c2c1C(=O)NCC2 [compound 491] , and I need its recorded pIC50.
stdout: 6.00 to 7.00

stdin: Can you look up the measured pIC50 of C=CC(=O)NC1(C#Cc2cnccc2-c2[nH]c3c(c2Nc2cccc(Cl)c2OC)C(=O)NCC3)CCC1 [compound 261] for me?
stdout: 6.00 to 7.00

stdin: Which measured pIC50 value corresponds to Cc1c(F)cccc1Nc1c(-c2ccncc2C#CC(C)(C)C)[nH]c2c1C(=O)NCC2 [compound 499] ?
stdout: < 6.00

stdin: Any idea what its pIC50 is? The molecule is C=C(F)C(=O)NC(C)(C)C#Cc1cnccc1-c1[nH]c2c(c1Nc1cccc(Cl)c1OC)C(=O)NCC2 [compound 390]
stdout: 6.00 to 7.00

stdin: Reported pIC50 for C=CC(=O)N1CCC[C@H]1COc1cnccc1-c1[nH]c2c(c1Nc1cccc(F)c1CC)C(=O)NCC2 [compound 211] : what is it?
stdout: > 7.00

stdin: // lookup pIC50 for COc1c(Cl)cccc1Nc1c(-c2ccncc2C#CC2(NC(=O)/C=C/CN(C)C)COC2)[nH]c2c1C(=O)NCC2 [compound 416]
stdout: < 6.00

stdin: May I ask what pIC50 has been recorded for C=CC(=O)N1CCOC[C@@]1(C)C#Cc1cnccc1-c1[nH]c2c(c1Nc1cccc(F)c1OC)C(=O)NCC2 [compound 632] ?
stdout: 6.00 to 7.00

stdin: Query: pIC50; subject: C=CC(=O)N1[C@@H](C#Cc2cnccc2-c2[nH]c3c(c2Nc2cccc(F)c2OC)C(=O)NCC3)C[C@@H]2C[C@@H]21 [compound 301]
stdout: 6.00 to 7.00

stdin: Can you look up the measured pIC50 of C=C(CN(C)C)C(=O)NC(C)(C)C#Cc1cnccc1-c1[nH]c2c(c1Nc1cccc(F)c1OC)C(=O)NCC2 [compound 575] for me?
stdout: > 7.00

stdin: Which pIC50 is listed for Cc1c(F)cccc1Nc1c(-c2ccncc2C#CC23CC(CN2C(=O)/C=C/CN(C)C)C3)[nH]c2c1C(=O)NCC2 [compound 451] ?
stdout: 6.00 to 7.00

stdin: Recorded pIC50 of COc1c(F)cccc1Nc1c(-c2ccncc2OCc2cn3ccccc3n2)[nH]c2c1C(=O)NCC2 [Compound 481] , please.
stdout: 6.00 to 7.00

stdin: Quick one: pIC50 of COc1c(F)cccc1Nc1c(-c2ccncc2OCCc2ccco2)[nH]c2c1C(=O)NCC2 [Compound 483] ?
stdout: 6.00 to 7.00

stdin: Fill in: pIC50 of COc1c(F)cccc1Nc1c(-c2ccncc2C#CC2(C)CCN2C(=O)/C=C/CN(C)C)[nH]c2c1C(=O)NCC2 (stereo not shown) [compound 462] is ___
stdout: < 6.00

stdin: Which pIC50 reading was recorded for the molecule C=CC(=O)N[C@@]1(C#Cc2cnccc2-c2[nH]c3c(c2Nc2cccc(F)c2C)C(=O)NCC3)CCOC1 [compound 386] ?
stdout: 6.00 to 7.00

stdin: Value lookup for pIC50; key = COc1c(F)cccc1Nc1c(-c2ccncc2OCC2CCc3nccn32)[nH]c2c1C(=O)NCC2 (stereo not shown) [Compound 128]
stdout: < 6.00

stdin: Look up pIC50: C=CC(=O)NC1(C#Cc2cnccc2-c2[nH]c3c(c2Nc2cccc(Cl)c2OC)C(=O)NCC3)COC1 [compound 264]
stdout: 6.00 to 7.00

stdin: Which pIC50 reading was recorded for the molecule CC#CC(=O)N1CC[C@@H]1COc1cnccc1-c1[nH]c2c(c1Nc1cccc(Cl)c1F)C(=O)NCC2 [compound 407] ?
stdout: > 7.00

stdin: Any idea what its pIC50 is? The molecule is COc1c(F)cccc1Nc1c(-c2ccncc2C#CC(C)(C)NC(=O)/C=C/CN2CCN(C)CC2)[nH]c2c1C(=O)NCC2 [compound 464]
stdout: < 6.00

stdin: // query pIC50 value for entry C=CC(=O)N1CC[C@@H]1[C@H](C)Oc1cnccc1-c1[nH]c2c(c1Nc1cccc(F)c1OC)C(=O)NCC2 [compound 310]
stdout: < 6.00

stdin: Suppose we examine the molecule COc1c(F)cccc1Nc1c(-c2ccncc2C#CC(C)(C)NC(=O)/C=C/CN2CC(OC)C2)[nH]c2c1C(=O)NCC2 [compound 393] ; what pIC50 value has been reported?
stdout: 6.00 to 7.00
